target: RAR alpha (Homo sapiens, UniProt P10276); experiment: Transactivation test (luciferase reporter, HeLa cells), RAR alpha; conditions: HeLa stable transfectants, reference ligand at the concentration that gives 80% activation
Sequence (P10276 183-417 limits assumed): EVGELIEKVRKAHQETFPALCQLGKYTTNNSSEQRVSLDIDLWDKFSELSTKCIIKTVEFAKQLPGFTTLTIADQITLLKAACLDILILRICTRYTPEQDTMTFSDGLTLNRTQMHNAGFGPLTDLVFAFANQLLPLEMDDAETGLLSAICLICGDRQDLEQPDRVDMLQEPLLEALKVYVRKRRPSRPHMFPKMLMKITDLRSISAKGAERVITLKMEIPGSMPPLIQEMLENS

INPUT_SMILES | IC50, nM
CC(C)(C)c1ccc(COc2cc([Se]C#Cc3ccc(C(=O)O)cc3)cc3c2C(C)(C)CCC3(C)C)cc1 | 26.3
CC1(C)CCC(C)(C)c2c(OCc3ccc(F)cc3F)cc([Se]C#Cc3ccc(C(=O)O)cc3)cc21 | 3.5
Cc1cccc(COc2cc([Se]C#Cc3ccc(C(=O)O)cc3)cc3c2C(C)(C)CCC3(C)C)c1 | 52.5
CC1(C)CCC(C)(C)c2c(OCc3ccc(F)c(F)c3)cc([Se]C#Cc3ccc(C(=O)O)cc3)cc21 | 3.5
CC1(C)CCC(C)(C)c2c(OCc3ccc(F)cc3)cc([Se]C#Cc3ccc(C(=O)O)cc3)cc21 | 14
CC1(C)CCC(C)(C)c2c(OCc3cccc(F)c3)cc([Se]C#Cc3ccc(C(=O)O)cc3)cc21 | 14

Value source: patent US7326803B2
